The following compounds are listed with their measured pKa values.
Experiment: Dissociation constant, pKa of the compound
Reply with the value as a number alone.

Clc1ccncc1: 3.83
Clc1ccccn1 [2-CHLOROPYRIDINE]: 0.49

Ask: Need pKa of `Clc1cccnc1` , thanks.
Result: 2.81
